- Test target: Neuropeptides B/W receptor type 1 (Homo sapiens) (UniProt P48145)
- Assay overview: GPR7 antagonist potency, late-stage follow-up, cell-based, fluorescence, dose response, set 2 (AID 504868)
- Protocol conditions: GPR7-expressing cells, fluorescence antagonist readout; run 1
Calls of active or inactive are those of the source. No rule for the calls is given here.
Outcome codes: active, inactive

[
  {
    "Item smiles": "COc1ccc(Oc2c(C=O)cnn(-c3ccc(C(C)C)cc3)c2=O)cc1",
    "Test target": "Neuropeptides B/W receptor type 1 (Homo sapiens) (UniProt P48145)",
    "Assigned class": "active"
  },
  {
    "Item smiles": "Cc1ccc(-n2ncc(Cl)c(Oc3ccc(OC(F)(F)F)cc3)c2=O)cc1",
    "Test target": "Neuropeptides B/W receptor type 1 (Homo sapiens) (UniProt P48145)",
    "Assigned class": "active"
  },
  {
    "Item smiles": "Cc1ccc(-n2ncc(Cl)c(Oc3ccc(CO)cc3)c2=O)cc1",
    "Test target": "Neuropeptides B/W receptor type 1 (Homo sapiens) (UniProt P48145)",
    "Assigned class": "active"
  },
  {
    "Item smiles": "COC(=O)c1cnn(-c2ccc(C(C)C)cc2)c(=O)c1Oc1ccc(OC)cc1",
    "Test target": "Neuropeptides B/W receptor type 1 (Homo sapiens) (UniProt P48145)",
    "Assigned class": "active"
  },
  {
    "Item smiles": "Cc1ccc(-n2ncc(Cl)c(Oc3ccc(C(F)(F)F)cc3)c2=O)cc1",
    "Test target": "Neuropeptides B/W receptor type 1 (Homo sapiens) (UniProt P48145)",
    "Assigned class": "active"
  },
  {
    "Item smiles": "COc1ccc(Oc2c(C)cnn(-c3ccc(C(C)C)cc3)c2=O)cc1",
    "Test target": "Neuropeptides B/W receptor type 1 (Homo sapiens) (UniProt P48145)",
    "Assigned class": "active"
  },
  {
    "Item smiles": "COc1ccc(Oc2c(C#N)cnn(-c3ccc(C(C)C)cc3)c2=O)cc1",
    "Test target": "Neuropeptides B/W receptor type 1 (Homo sapiens) (UniProt P48145)",
    "Assigned class": "active"
  },
  {
    "Item smiles": "COc1ccc(Oc2c(C3CC3)cnn(-c3ccc(C)cc3)c2=O)cc1",
    "Test target": "Neuropeptides B/W receptor type 1 (Homo sapiens) (UniProt P48145)",
    "Assigned class": "active"
  },
  {
    "Item smiles": "COc1ccc(Oc2c(-c3ccccc3)cnn(-c3ccc(C)cc3)c2=O)cc1",
    "Test target": "Neuropeptides B/W receptor type 1 (Homo sapiens) (UniProt P48145)",
    "Assigned class": "inactive"
  }
]

Reference source for all entries: PubChem BioAssay AID504868
